B1: SNX8 (parent)
chain: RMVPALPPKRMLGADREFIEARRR

variants of: B1; experiment: protein stability index of a GFP-peptide fusion (GPS, HEK-293T) (PSI 1-6); higher = more stable; conditions: c terminus: a fixed tail appended;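 note: lentivirally expressed fusions sorted by FACS into six bins by GFP to DsRed ratio, PSI derived from sequencing read proportions per bin multiplied by bin number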
Returns Fulfilled if the recorded protein stability index is greater than or equal to 4, and Not fulfilled otherwise.

[[record]]
variantdescription = "V3H"
categorylabel = "Not fulfilled"

[[record]]
variantdescription = "D15T"
categorylabel = "Not fulfilled"

[[record]]
variantdescription = "A21K"
categorylabel = "Fulfilled"

[[record]]
variantdescription = "R22T"
categorylabel = "Not fulfilled"

[[record]]
variantdescription = "D15F"
categorylabel = "Not fulfilled"

[[record]]
variantdescription = "P8I"
categorylabel = "Not fulfilled"

[[record]]
variantdescription = "E20F"
categorylabel = "Not fulfilled"

[[record]]
variantdescription = "R23Y"
categorylabel = "Not fulfilled"

[[record]]
variantdescription = "L12Y"
categorylabel = "Not fulfilled"

[[record]]
variantdescription = "E17H"
categorylabel = "Not fulfilled"

[[record]]
variantdescription = "M2P"
categorylabel = "Fulfilled"

[[record]]
variantdescription = "P7A"
categorylabel = "Not fulfilled"

[[record]]
variantdescription = "L12N"
categorylabel = "Fulfilled"

[[record]]
variantdescription = "R23E"
categorylabel = "Fulfilled"

[[record]]
variantdescription = "M2D"
categorylabel = "Fulfilled"

[[record]]
variantdescription = "R23S"
categorylabel = "Not fulfilled"

[[record]]
variantdescription = "A5G"
categorylabel = "Not fulfilled"

[[record]]
variantdescription = "V3A"
categorylabel = "Not fulfilled"

[[record]]
variantdescription = "P8Q"
categorylabel = "Not fulfilled"

[[record]]
variantdescription = "R24I"
categorylabel = "Not fulfilled"

[[record]]
variantdescription = "R1P"
categorylabel = "Not fulfilled"

[[record]]
variantdescription = "R22I"
categorylabel = "Not fulfilled"

[[record]]
variantdescription = "A21P"
categorylabel = "Not fulfilled"

[[record]]
variantdescription = "E17W"
categorylabel = "Not fulfilled"

[[record]]
variantdescription = "L12D"
categorylabel = "Fulfilled"

[[record]]
variantdescription = "F18A"
categorylabel = "Not fulfilled"

[[record]]
variantdescription = "R10Q"
categorylabel = "Fulfilled"

[[record]]
variantdescription = "L12K"
categorylabel = "Not fulfilled"

[[record]]
variantdescription = "K9I"
categorylabel = "Fulfilled"

[[record]]
variantdescription = "E17F"
categorylabel = "Not fulfilled"

[[record]]
variantdescription = "L12F"
categorylabel = "Fulfilled"

[[record]]
variantdescription = "R24M"
categorylabel = "Not fulfilled"

[[record]]
variantdescription = "A5H"
categorylabel = "Not fulfilled"

[[record]]
variantdescription = "V3P"
categorylabel = "Not fulfilled"

[[record]]
variantdescription = "P4D"
categorylabel = "Not fulfilled"

[[record]]
variantdescription = "M2Q"
categorylabel = "Fulfilled"

[[record]]
variantdescription = "R10L"
categorylabel = "Not fulfilled"

[[record]]
variantdescription = "P7W"
categorylabel = "Not fulfilled"

[[record]]
variantdescription = "F18S"
categorylabel = "Fulfilled"

[[record]]
variantdescription = "M2F"
categorylabel = "Not fulfilled"

[[record]]
variantdescription = "R24L"
categorylabel = "Not fulfilled"

[[record]]
variantdescription = "A21N"
categorylabel = "Fulfilled"

[[record]]
variantdescription = "R1H"
categorylabel = "Not fulfilled"

[[record]]
variantdescription = "A21E"
categorylabel = "Not fulfilled"

[[record]]
variantdescription = "R16I"
categorylabel = "Not fulfilled"

[[record]]
variantdescription = "A5K"
categorylabel = "Not fulfilled"

[[record]]
variantdescription = "A14R"
categorylabel = "Not fulfilled"

[[record]]
variantdescription = "P7C"
categorylabel = "Not fulfilled"

[[record]]
variantdescription = "G13I"
categorylabel = "Not fulfilled"

[[record]]
variantdescription = "E20Y"
categorylabel = "Not fulfilled"

[[record]]
variantdescription = "M11N"
categorylabel = "Not fulfilled"

[[record]]
variantdescription = "R23P"
categorylabel = "Not fulfilled"

[[record]]
variantdescription = "V3D"
categorylabel = "Fulfilled"

[[record]]
variantdescription = "A14Y"
categorylabel = "Not fulfilled"

[[record]]
variantdescription = "A21F"
categorylabel = "Not fulfilled"

[[record]]
variantdescription = "P7Y"
categorylabel = "Not fulfilled"

[[record]]
variantdescription = "P4K"
categorylabel = "Not fulfilled"

[[record]]
variantdescription = "E20I"
categorylabel = "Not fulfilled"

[[record]]
variantdescription = "R24E"
categorylabel = "Fulfilled"

